The following molecules are listed with their measured TGI values.
- Tested on: SF-539 CNS
- measurement-notes: NCI tumour cell line growth inhibition, 48 h

Solved entries:
molecule	TGI
CCN(CC)CC(O)CNc1c2ccc([N+](=O)[O-])cc2nc2cc(OC)c(OC)cc12 (stereo not drawn)	1.45 µM
O=c1c(Br)cc2nc3ccccc3sc-2c1Br	> 100 µM

Value lookup for TGI; key = CCOC(=O)C1=NN(c2ccc([N+](=O)[O-])cc2)[C@@]2(C)C[C@]3(c4ccccc4)N(c4ccc([N+](=O)[O-])cc4)N=C(C(=O)OCC)N3c3ccccc3N12
> 100 µM

---

- Tested on: SK-OV-3 ovarian
- measurement-notes: NCI tumour cell line growth inhibition, 48 h
The following molecules are listed with their measured TGI values.

Value lookup for TGI; key = Cc1cccc(C)c1NC(=O)C1C(=O)N(c2c(C)cccc2C)C(=O)/C1=N\N (stereo not drawn)
> 100 µM

Another molecule to check: CC(=O)c1c(C)[nH]c(-c2nc3ccc(N4CCN(C)CC4)cc3[nH]2)c1-c1ccc(N(C)C)cc1
3.65 µM

Another molecule to check: O=C1C(=O)N(c2cccc(C(F)(F)F)c2)C(=S)N1c1ccccc1
70.4 µM

Another molecule to check: CCOC(=O)C1=NN(c2ccc([N+](=O)[O-])cc2)[C@@]2(C)C[C@]3(c4ccccc4)N(c4ccc([N+](=O)[O-])cc4)N=C(C(=O)OCC)N3c3ccccc3N12
> 100 µM

Another molecule to check: COc1cc(-c2cc(=O)c3c(O)c(CC=C(C)C)c(O)cc3o2)ccc1O
> 50 µM

Another molecule to check: [N-]=[N+]=NC(c1cn(C2CC(O)C(CO)O2)c(=O)[nH]c1=O)C(Cl)I (stereo not drawn)
> 100 µM

Another molecule to check: COc1cc(N(C)C)c(OC)cc1/C=C\c1ccnc2ccccc12
> 10 µM

Another molecule to check: CC(C)=CCC/C(C)=C/CC/C(C)=C/CC/C(C)=C/CC/C(C)=C/CC/C(C)=C/CC/C(C)=C/CC/C(C)=C/CC/C(C)=C/CO
> 100 µM

---

The following compounds are listed with their measured TGI values.
- System: ACHN renal
- measurement-notes: NCI tumour cell line growth inhibition, 48 h

compound	result
N#Cc1c(N2CCC(O)C2)c2ccccc2n2c1nc1ccccc12 (centres undefined)	42 µM
CS(=O)(=O)c1ccc(N=C/C=C/Nc2ccc(S(C)(=O)=O)cc2)cc1	> 100 µM

Value lookup for TGI; key = CCOC(=O)C1=NN(c2ccc([N+](=O)[O-])cc2)[C@@]2(C)C[C@]3(c4ccccc4)N(c4ccc([N+](=O)[O-])cc4)N=C(C(=O)OCC)N3c3ccccc3N12
> 100 µM

Another compound to check: COc1ccc(C2SCC(=O)N2NC(=O)c2ccc(NC(C)=O)cc2)c(OC)c1 (centres undefined)
> 100 µM

Another compound to check: CN(C)CCNC(=O)c1cccc(N(C)C(=O)c2ccccc2)c1[N+](=O)[O-]
> 100 µM

Another compound to check: CC(=O)c1c(C)[nH]c(-c2nc3ccc(N4CCN(C)CC4)cc3[nH]2)c1-c1ccc(N(C)C)cc1
12.6 µM

Another compound to check: O=C1C=CC(=Nc2cc(Br)c(O)c(Br)c2)C=C1
46.3 µM

Another compound to check: CCOC(=O)C(Cc1ccc(OC(=O)c2ccc(OC)cc2)cc1)NC(=O)C(F)(F)F (centres undefined)
> 100 µM

Another compound to check: O=C(c1ccccc1)C1OC1c1ccc([N+](=O)[O-])cc1 (centres undefined)
> 100 µM

Another compound to check: COc1cc(-c2cc(=O)c3c(O)c(CC=C(C)C)c(O)cc3o2)ccc1O
> 50 µM

Another compound to check: COC1CC(COCc2ccccc2)CC(OC)O1 (centres undefined)
> 100 µM

Another compound to check: COc1ccc(Cc2nnc(Nc3ccc(Br)cc3)[nH]c2=O)cc1OC
> 100 µM

---

- System: RPMI-8226 leukemia
- measurement-notes: NCI tumour cell line growth inhibition, 48 h
The following compounds are listed with their measured TGI values.

compound	endpoint-name	result
COc1ccc(-c2cc(=O)c3cc(OC)ccc3[nH]2)cc1	TGI	> 100 µM
CCN(CC)CC(O)CNc1c2ccc([N+](=O)[O-])cc2nc2cc(OC)c(OC)cc12 (stereo unspecified)	TGI	2.14 µM
COC(=O)C(C(=O)OC)C1CCCC(=O)C1 (stereo unspecified)	TGI	> 100 µM
COC1CC(COCc2ccccc2)CC(OC)O1 (stereo unspecified)	TGI	> 100 µM
C/C(=N\NS(=O)(=O)c1ccc(C)cc1)P(=O)(O)O	TGI	> 100 µM

Value lookup for TGI; key = CC(=O)Nc1c(C)cc2c(nc3n2CCC3OC(C)=O)c1[N+](=O)[O-] (stereo unspecified)
> 100 µM

Another compound to check: Cc1cccc(C)c1NC(=O)C1C(=O)N(c2c(C)cccc2C)C(=O)/C1=N\N (stereo unspecified)
> 100 µM

Another compound to check: COC(=O)C1(C#N)C(C)(C)N=C(c2ccccc2)C12CCCCC2 (stereo unspecified)
> 100 µM

Another compound to check: Cc1cc(Cc2cc(C)c(NC(=O)C(=O)C3CCC4=C(SC5C=CC=CC5N4)C3=O)c(C(C)C)c2)cc(C(C)C)c1NC(=O)C(=O)C1CCC2=C(SC3C=CC=CC3N2)C1=O (stereo unspecified)
> 100 µM

---

- System: HCT-116 colon
- measurement-notes: NCI tumour cell line growth inhibition, 48 h
The following molecules are listed with their measured TGI values.

Solved entries:
molecule	endpoint-name	result
Cc1cccc(C)c1NC(=O)C1C(=O)N(c2c(C)cccc2C)C(=O)/C1=N\N (stereo unspecified)	TGI	> 100 µM
O=C(O)CCC(N=Cc1nc(-c2ccccc2)oc1O)C(=O)O (stereo unspecified)	TGI	> 100 µM
N#Cc1c(N2CCC(O)C2)c2ccccc2n2c1nc1ccccc12 (stereo unspecified)	TGI	> 100 µM
CCOC(=O)C(Cc1ccc(OC(=O)c2ccc(OC)cc2)cc1)NC(=O)C(F)(F)F (stereo unspecified)	TGI	> 100 µM
CC(=O)C1C(c2ccc(N(C)C)cc2)c2cc3c(cc2OC1(C)O)OCO3 (stereo unspecified)	TGI	> 100 µM
COc1cc(NCCCN=C(N)NC(N)=NC(C)C)c2ncccc2c1	TGI	30.3 µM
O=C(O)CCSCc1ccccc1	TGI	> 100 µM
COc1ccc(/C(Cl)=C(\C=N/O)c2ccc(OC)c(OC)c2)cc1OC	TGI	> 100 µM

Value lookup for TGI; key = O=C(c1ccccc1)C1OC1c1ccc([N+](=O)[O-])cc1 (stereo unspecified)
12.6 µM

Another molecule to check: NCC1OC(n2cnc3c(N)ncnc32)CC1O (stereo unspecified)
> 100 µM

Another molecule to check: NCCCC[C@H](N)C(=O)Nc1ccc(-c2nc3ccccc3s2)cc1
33 µM

---

The following compounds are listed with their measured TGI values.
- System: COLO 205 colon
- measurement-notes: NCI tumour cell line growth inhibition, 48 h

compound	TGI
Cc1ccc(S(=O)(=O)Oc2nc3ccccc3nc2OS(=O)(=O)c2ccc(C)cc2)cc1	> 100 µM
Cc1nnc(-c2cccc(-c3ccc(C(=O)NCC4CC4)cc3)c2)o1	> 25 µM
CC(=O)Nc1c(C)cc2c(nc3n2CCC3OC(C)=O)c1[N+](=O)[O-] (configuration not stated)	> 100 µM
O=c1ncc(F)cn1C1OC(CO)C(O)C1O (configuration not stated)	> 37.9 µM
Cc1ccc(NC(=O)CC2Sc3ccccc3NC2=O)c(C)c1 (configuration not stated)	38.7 µM

# value lookup — system COLO 205 colon, readout TGI, item COC(=O)C(C(=O)C(=O)Nc1ccc([N+](=O)[O-])cc1[N+](=O)[O-])c1nc2ccc(Cl)cc2[nH]c1=O (configuration not stated)
> 100 µM

Another compound to check: CCOc1ccc(N/C(=C(/C(Cl)=C(/Cl)N2CCCCC2)[N+](=O)[O-])n2nnc3ccccc32)cc1
42.5 µM

Another compound to check: COC(=O)C(Cc1c[nH]c2ccccc12)NC(=O)c1ccc(-c2ccc(Cl)cc2Cl)o1 (configuration not stated)
> 100 µM

Another compound to check: Cc1nc2ccccc2c(/C=C/c2ccc(Cl)cc2)c1C(=O)/C=C/c1ccc(C(F)(F)F)cc1
3.25 µM

Another compound to check: CCN(CC)CCCNCc1cc(-c2ccccc2)nc2ccccc12
31.3 µM

Another compound to check: NC(Cc1ccc(N(CCCl)CCCl)cc1)C(=O)NC(CCC(=O)O)C(=O)O (configuration not stated)
> 100 µM

Another compound to check: CC(C)O/N=C/c1cc(NC(=S)OC(C)C)ccc1Cl
> 81.3 µM

---

- Test system: UACC-257 melanoma
- measurement-notes: NCI tumour cell line growth inhibition, 48 h
The following compounds are listed with their measured GI50 values.

compound	result
O=c1cc(-c2cccc3c2Sc2ccccc2S3)oc(N2CCOCC2)c1	13.9 µM
Cc1csc(/C=C/C(=O)c2nnn(-c3ccnc4c(C(F)(F)F)cccc34)c2C)c1	13.7 µM
S=C(Nc1ccc(-c2nc3ccccc3[nH]2)cc1)Nc1ccc(-c2nc3ccccc3[nH]2)cc1	> 100 µM
O=C(Nc1ccc(-n2ccc3c(NC(=O)c4ccccc4)ncnc32)cc1)Nc1ccc(Cl)c(Cl)c1	3.57 µM
C=C1CCC2C3(C)COC(c4ccccc4)OC3CCC2(C)C1/C=C/C1=CCOC1=O (stereo not given)	63.4 µM

# value lookup — system UACC-257 melanoma, readout GI50, item CCC[CH2][Sn]1([CH2]CCC)[O]CC(CN(C)Cc2ccccc2)[O]1 (stereo not given)
7.85 µM

Another compound to check: NCCOCCOCCNc1nc(-c2ccccc2)nc(N2CCN(c3ccccn3)CC2)n1
3.23 µM

Another compound to check: O=C(c1ccccc1)C1OC1c1ccc([N+](=O)[O-])cc1 (stereo not given)
16.7 µM

Another compound to check: O=C(Nc1ccncc1)C(=O)c1cn(S(=O)(=O)c2ccc(Cl)cc2)c2ccccc12
1.1 µM

Another compound to check: NCCCCCCCn1c2c(c3ccccc3c1=O)C(=O)c1ccccc1-2
2.19 µM
